In this section we review reported Ligand-pharmacophore element distance, pharmacophore element CA5 values for a set of compounds.
- assay_target: MASP-2 CCP2-SP (Homo sapiens (Human))
- Sequence (O00187 445-686): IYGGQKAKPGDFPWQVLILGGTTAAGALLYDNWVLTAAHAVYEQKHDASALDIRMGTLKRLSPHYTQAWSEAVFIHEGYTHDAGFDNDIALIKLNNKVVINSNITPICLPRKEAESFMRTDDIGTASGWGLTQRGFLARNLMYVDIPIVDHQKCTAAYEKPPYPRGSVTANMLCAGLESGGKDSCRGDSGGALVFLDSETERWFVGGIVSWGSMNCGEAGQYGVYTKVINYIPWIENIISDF
- Sequence (O00187 364-432 partner): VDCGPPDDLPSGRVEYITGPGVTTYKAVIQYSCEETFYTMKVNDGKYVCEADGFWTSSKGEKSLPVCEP
- assay_protocol: MASP-2 co-crystallization, X-ray crystallography and structure analysis (H-bonds, van der Waals contacts);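 also: distance from averaged pharmacophore element to bound ligand; missing value means element absent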
- condition: Table A4-1; element CA5
Where a name gives a salt, the structure may show the parent alone.
Kindly provide the number alone.

Here are 5 compounds together with their reported answers.
# compound, assay_target, result_value
measured = [
    ("Cc1nc(N)ccc1CNC(=O)[C@H](C)NC(=O)[C@H]1C[C@H](Cc2cccc(Cl)c2)CN1.Cl.Cl [1328_1]", "MASP-2 CCP2-SP (Homo sapiens (Human))", 0),
    ("C[C@H](NC(=O)[C@H]1C[C@H](Cc2ccccc2)CN1)C(=O)NCc1ccc(C(=N)N)cc1.Cl.Cl [1306_2]", "MASP-2 CCP2-SP (Homo sapiens (Human))", 0),
    ("C[C@H](NC(=O)[C@H]1C[C@@H](c2ccccc2)CCN1)C(=O)NCc1cc(Cl)ccc1O.Cl [1078_13]", "MASP-2 CCP2-SP (Homo sapiens (Human))", 0),
    ("C[C@H](NC(=O)[C@@H](CCc1ccccc1)NCc1ccc(C(=O)N2CCOCC2)cc1)C(=O)NCc1ccc(C(=N)N)cc1.Cl.Cl", "MASP-2 CCP2-SP (Homo sapiens (Human))", 6.17),
    ("C[C@H](NC(=O)[C@H](N)CCc1cccc(Cl)c1)C(=O)NCc1ccc(C(=N)N)cc1", "MASP-2 CCP2-SP (Homo sapiens (Human))", 0),
]

// query Please give the measured Ligand-pharmacophore element distance, pharmacophore element CA5 for this compound: C[C@H](NC(=O)[C@H](N)CCc1ccccc1)C(=O)NCc1ccc(N)nc1.Cl.Cl [1007_2]
// result 0

// query Please give the measured Ligand-pharmacophore element distance, pharmacophore element CA5 for this compound: C[C@H](NC(=O)[C@H]1Cc2c([nH]c3ccccc23)CN1)C(=O)NCc1ccc(C(=N)N)cc1.Cl.Cl [1097_1]
// result 0.98

// query Please give the measured Ligand-pharmacophore element distance, pharmacophore element CA5 for this compound: C[C@H](NC(=O)[C@H]1C[C@@H](c2ccccc2)CCN1)C(=O)NCc1ccc(C(=N)N)cc1 (stereo in doubt)
// result 0

// query Please give the measured Ligand-pharmacophore element distance, pharmacophore element CA5 for this compound: C[C@H](NC(=O)[C@H]1C[C@@H](c2ccccc2)CN1)C(=O)NCc1ccc2c(N)nccc2c1.Cl.Cl [1089_B]
// result 1.16

// query Please give the measured Ligand-pharmacophore element distance, pharmacophore element CA5 for this compound: Cc1nc(N)ccc1CNC(=O)[C@H](C)NC(=O)[C@H]1C[C@H](Cc2ccccc2Br)CN1.O=C(O)C(F)(F)F.O=C(O)C(F)(F)F [1372_A]
// result 0

// query Please give the measured Ligand-pharmacophore element distance, pharmacophore element CA5 for this compound: Cc1nc(N)ccc1CNC(=O)[C@H](C)NC(=O)[C@H]1C[C@H](Cc2cc(Cl)cc(Cl)c2)CN1 [compound 1435, Dihydrochloride]
// result 0

// query Please give the measured Ligand-pharmacophore element distance, pharmacophore element CA5 for this compound: Cc1nc(N)ccc1CNC(=O)[C@H](C)NC(=O)[C@H]1C[C@@H](Cc2ccccc2)CCN1
// result 0

// query Please give the measured Ligand-pharmacophore element distance, pharmacophore element CA5 for this compound: C[C@H](NC(=O)[C@H]1C[C@@H](c2ccccc2)CCN1)C(=O)NCc1cc(Cl)ccc1O.Cl [1078_14]
// result 0

// query Please give the measured Ligand-pharmacophore element distance, pharmacophore element CA5 for this compound: Cc1nc(N)ccc1CNC(=O)[C@H](C)NC(=O)[C@H]1C[C@H](Cc2cccc(Cl)c2)CN1.Cl.Cl [1328_2]
// result 0
